Target: full-length human PKCι (Homo sapiens)
Construct: Recombinant, full-length human PKCι expressed in Sf21 insect cells is also commercially available
Experiment: PKCι IC50 IMAP assay, full-length PKCι at 150 μM ATP
Conditions: read-out: IC50 in IMAP assay against full length PKCi at 150 μM ATP
// reported IC50 per item

Quick check: IC50 of Clc1cncc2nc(-c3ccnc(Nc4ccccc4)c3)nc(N3CCNCC3)c12 ? 100 to 1000 nM

Quick check: IC50 of c1ccc(Nc2cc(-c3nc(N4CCNCC4)c4ccncc4n3)ccn2)cc1 ? 100 to 1000 nM

Quick check: IC50 of CC(C)n1ccc(Nc2cc(-c3nc(N4CCNCC4)c4c(C5CC5)cncc4n3)ccn2)n1 ? < 100 nM

Others:
Quick check: IC50 of c1ccc2c(c1)[nH]c1nccc(-c3nc(N4CCNCC4)c4ccncc4n3)c12 ? < 100 nM

Quick check: IC50 of CN(c1nc(-c2ccnc(Nc3nc(F)cc(F)c3F)c2)nc2cncc(C3CC3)c12)C1CCNCC1 ? < 100 nM

Quick check: IC50 of OC1CCN(c2nc(-c3ccncc3)nc3c(Cl)nccc23)CC1 ? 1000 to 10000 nM

Quick check: IC50 of Cn1ccc(Nc2cc(-c3nc(N4CCNC(C)(C)C4)c4c(C5CC5)cncc4n3)ccn2)n1 ? < 100 nM

###

// reported pIC50 per item
Target: full-length human PKCι (Homo sapiens, UniProt P41743)
Construct: Recombinant, full-length human PKCι expressed in Sf21 insect cells is also commercially available; purchased; host or cells: Sf21 insect cells
Sequence (P41743 whole entry): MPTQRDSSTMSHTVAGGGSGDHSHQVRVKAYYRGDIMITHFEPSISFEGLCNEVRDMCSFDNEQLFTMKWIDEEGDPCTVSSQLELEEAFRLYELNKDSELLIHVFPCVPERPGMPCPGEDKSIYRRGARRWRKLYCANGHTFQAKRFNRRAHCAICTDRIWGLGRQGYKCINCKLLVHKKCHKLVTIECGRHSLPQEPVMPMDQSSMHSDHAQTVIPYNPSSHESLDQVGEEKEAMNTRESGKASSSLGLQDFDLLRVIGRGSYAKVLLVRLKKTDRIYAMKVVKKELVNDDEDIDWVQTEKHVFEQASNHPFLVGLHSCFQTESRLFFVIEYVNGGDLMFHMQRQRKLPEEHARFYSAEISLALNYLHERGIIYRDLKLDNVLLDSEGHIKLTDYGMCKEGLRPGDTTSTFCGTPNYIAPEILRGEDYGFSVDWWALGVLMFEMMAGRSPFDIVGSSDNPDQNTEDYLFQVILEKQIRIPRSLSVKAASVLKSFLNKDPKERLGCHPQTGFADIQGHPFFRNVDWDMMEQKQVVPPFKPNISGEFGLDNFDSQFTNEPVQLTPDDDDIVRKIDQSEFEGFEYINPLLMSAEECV
Test: PKCι IC50 IMAP assay, full-length PKCι at 150 μM ATP
Format: biochemical
Details: read-out: IC50 in IMAP assay against full length PKCi at 150 μM ATP
pIC50: −log10 of the molar value.

Quick check: pIC50 of COc1cncc2nc(-c3ccnc(NC(=O)[C@@H](C)c4ccccc4)c3)nc(N3CCNCC3)c12 ? 6.00 to 7.00

Quick check: pIC50 of CCNC(=O)C1CCN(c2nc(-c3ccnc(Nc4c(F)cccc4F)c3)nc3cncc(C4CC4)c23)CC1 ? 5.00 to 6.00

Quick check: pIC50 of Fc1cccc(F)c1Nc1cc(-c2nc(N3CCNC4CC43)c3c(C4CC4)cncc3n2)ccn1 (stereo not drawn) ? > 7.00

Quick check: pIC50 of Fc1cc(F)c(Nc2cc(-c3nc(N4CCNCC4)c4c(C5CC5)cncc4n3)ccn2)cn1 ? > 7.00

Quick check: pIC50 of CP(C)(=O)c1ccc(Nc2cc(-c3nc(N4CCNCC4)c4c(C5CC5)cncc4n3)ccn2)cc1 ? > 7.00

Quick check: pIC50 of COc1cncc2nc(-c3ccnc(Nc4cc(F)ccc4F)c3)nc(N3CCNCC3)c12 ? > 7.00

Quick check: pIC50 of COc1ccc(F)c(Nc2cc(-c3nc(N4CCNCC4)c4c(C5CC5)cncc4n3)ccn2)c1F ? > 7.00

Quick check: pIC50 of c1cc(-c2nc(N3CCNCC3)c3c(C4CC4)cncc3n2)cc(Nc2ccc3c(c2)CCC3)n1 ? > 7.00

Quick check: pIC50 of Fc1cc(F)c(Nc2cc(-c3nc(N4CCNCC4)c4c(C5CC5)cnc(Cl)c4n3)ccn2)nc1F ? > 7.00

Quick check: pIC50 of Clc1ccccc1Nc1cc(-c2nc(N3CCNCC3)c3c(C4CC4)cncc3n2)ccn1 ? > 7.00

Others:
Quick check: pIC50 of COc1cncc2nc(-c3ccncc3)nc(N3CCN[C@@H](C(F)c4ccccc4)C3)c12 (stereo partly drawn) [Example 76] ? > 7.00

Quick check: pIC50 of Fc1ccc(Nc2cc(-c3nc(N4CCNCC4)c4c(Cl)cncc4n3)ccn2)c(F)c1 ? 6.00 to 7.00
